Items are presented alongside their recorded IC50.
# assay_system: T1, human parathyroid hormone receptor (PTHR) (human, UniProt Q03431 27-593)
# T1 construct: Assayed in membranes of HKRK-B7 cells or of transiently transfected COS-7 cells, or on intact HKRK-B7/HKRK-B64/COS-7 cells; RG = co-transfected with negative-dominant Galpha-s; R0 = receptor alone plus GTPgammaS; also called hPTHR; human PTH receptor
# T1 sequence: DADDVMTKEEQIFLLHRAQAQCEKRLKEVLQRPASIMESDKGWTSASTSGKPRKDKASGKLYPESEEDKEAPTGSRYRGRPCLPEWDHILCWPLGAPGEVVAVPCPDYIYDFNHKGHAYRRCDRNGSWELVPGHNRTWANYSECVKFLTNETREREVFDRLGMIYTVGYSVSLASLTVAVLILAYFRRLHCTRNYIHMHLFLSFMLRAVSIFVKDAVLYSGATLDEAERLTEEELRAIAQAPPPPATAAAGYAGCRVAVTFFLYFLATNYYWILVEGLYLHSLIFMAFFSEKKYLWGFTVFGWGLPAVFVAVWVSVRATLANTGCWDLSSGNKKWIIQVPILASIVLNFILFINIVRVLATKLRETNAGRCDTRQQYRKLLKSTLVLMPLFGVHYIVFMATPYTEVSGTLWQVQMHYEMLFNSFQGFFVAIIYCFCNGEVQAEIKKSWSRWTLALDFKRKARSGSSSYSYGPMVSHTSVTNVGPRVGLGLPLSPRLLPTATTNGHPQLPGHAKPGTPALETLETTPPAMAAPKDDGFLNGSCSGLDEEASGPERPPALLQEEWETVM
# experimental_protocol: competition radioligand binding, human PIR R0
Ends that are not written are not given here.
A number alone suffices; assume nM.

Below are worked cases with known answers.
binder="AVSEHQLLHDKGKSIQDARRRSFLLKLI-NH2 [A18,S22,L25,K26-PTHrP(1-28)NH]" readout_unit=nM quantitative_readout=540
binder="AVSEHQLLHDKGKSIQDARRRAFLHKLI-NH2 [A18,22,K26-PTHrP(1-28)NH]" readout_unit=nM quantitative_readout=1820
binder="AVSEHQLLHDKGKSIQDERRRAFLLKLIAE-NH2 (also called EALK-PTHrP(1-30)) [E18,A22,L25,K26-PTHrP(1-30)NH]" readout_unit=nM quantitative_readout=945

Q: Param item = AVSEHQLLHDKGKSIQDARRRAFLLKLI-NH2 (not fully specified, also called [Ala^18,22,Leu^25,Lys^26]-PTHrP(1-28); AALK-PTHrP(1-28)) [A18,22,L25,K26-PTHrP(1-28)NH] ; retrieve measured IC50.
Ans: 310

Q: Param item = AVSEHQLLHDKGKSIQDARRRAFLLKLIAE-NH2 [A18,22,L25,K26-PTHrP(1-30)NH] ; retrieve measured IC50.
Ans: 144

Q: Param item = AVSEHQLLHDKGKSIQDERRRAFLHKLI-NH2 [E18,A22,K26-PTHrP(1-28)NH] ; retrieve measured IC50.
Ans: 9240

Q: Param item = AVSEHQLLHDKGKSIQDERRRAFLLKLI-NH2 (also called EALK-PTHrP(1-28)) [E18,A22,L25,K26-PTHrP(1-28)NH] ; retrieve measured IC50.
Ans: 1740

Q: Param item = AVSEHQLLHDKGKSIQDERRRSFLLKLI-NH2 [E18,S22,L25,K26-PTHrP(1-28)NH] ; retrieve measured IC50.
Ans: 2060
